ASSAY EXPLANATION: Acute toxicity in mice
ASSAY SETUP: mouse, in vivo, po

{"COMPOUND": "Cl.NC12CCCC(C1)C1CCC2C1 (stereo not shown)", "LD50, mg/kg": 320}

###

Measured MCC at 72 h, listed per entry for reference.
ASSAY EXPLANATION: in vitro
ASSAY SETUP: human, kb cells
Where a name gives a salt, the structure may show the parent alone.
VALUE TYPE: MCC at 72 h (µg/mL)

{"COMPOUND": "NC12CC3CC(CC(C3)C1)C2 [Amantadine hydrochloride, reference compound]", "VALUE TYPE": "MCC at 72 h", "UNITS": "µg/mL", "CMP": ">", "OBS VALUE": 50}
{"COMPOUND": "Cl.NC12CCCC(C1)C1CCC2C1 (centres unmarked) [Compound A, hydrochloride]", "VALUE TYPE": "MCC at 72 h", "UNITS": "µg/mL", "CMP": "=", "OBS VALUE": 100}

###

ASSAY EXPLANATION: Acute toxicity in mice
ASSAY SETUP: mouse, in vivo, iv

{"COMPOUND": "Cl.NC12CCCC(C1)C1CCC2C1 (stereo not shown)", "LD50 / mg/kg": 58}

src = patent US4230725A
